System: 786-0 renal
assay_info: NCI-60 one-dose screen, 48 h (100 = growth as untreated, 0 = no growth, -100 = all killed)
stated_conditions: 10 µM unless noted
Compounds without any hit were thinned out: in the full panel of roughly 83,000, 20% have a hit.
growth below 70% gives condition not met; growth at or above it gives condition met.

In [3]: df
Out[3]:
                                   molecule     classification
0  CCOC(=O)c1ccc(NC(=O)c2nc(-c3cc(OC)c(OC)c(OC)c3)n(-c3ccc(Cl)cc3)n2)cc1      condition met
1  Nc1[nH]n2cc(-c3ccccc3)nc2c1N=Nc1ccc(S(N)(=O)=O)cc1  condition not met
2  Cn1c(=O)c2nc(/C=C/c3ccccc3)c(=O)[nH]c2n(C)c1=S      condition met
3  COCCOc1cc2ncnc(N3CCN(c4ncc(S(=O)(=O)N5CCCCC5)cn4)CC3)c2cc1OCCOC      condition met
4  c1csc(-c2ccc(CNc3c4ccccc4nc4ccccc34)cc2)c1  condition not met
5   COc1c(C(=O)Nc2ccc(C)c(Br)c2)ccc2ccccc12      condition met
6  NC(=O)c1ccc(-c2c3ccccc3cc3c2ccc2ccccc23)cc1  condition not met
7  CCN(CC)CCn1c2ccc(OC)cc2c2sc3cc(OC)ccc3c(=O)c21  condition not met
8  c1cc2c(ccc3[nH]c(-c4ccc5[nH]ncc5c4)c4c(c32)CCCC4)n1  condition not met
9  CC1CCN(S(=O)(=O)c2ccc(S(=O)(=O)N3CCCC(c4nc5c(nnn5Cc5cccc(Cl)c5)c(=O)[nH]4)C3)cc2)CC1 (configuration not stated)  condition not met
